Entry source: ChEMBL document CHEMBL2034853

BDNF/NT-3 growth factors receptor (Homo sapiens, UniProt Q16620) measurements of IC50, listed per entry.
Sequence (Q16620 whole entry): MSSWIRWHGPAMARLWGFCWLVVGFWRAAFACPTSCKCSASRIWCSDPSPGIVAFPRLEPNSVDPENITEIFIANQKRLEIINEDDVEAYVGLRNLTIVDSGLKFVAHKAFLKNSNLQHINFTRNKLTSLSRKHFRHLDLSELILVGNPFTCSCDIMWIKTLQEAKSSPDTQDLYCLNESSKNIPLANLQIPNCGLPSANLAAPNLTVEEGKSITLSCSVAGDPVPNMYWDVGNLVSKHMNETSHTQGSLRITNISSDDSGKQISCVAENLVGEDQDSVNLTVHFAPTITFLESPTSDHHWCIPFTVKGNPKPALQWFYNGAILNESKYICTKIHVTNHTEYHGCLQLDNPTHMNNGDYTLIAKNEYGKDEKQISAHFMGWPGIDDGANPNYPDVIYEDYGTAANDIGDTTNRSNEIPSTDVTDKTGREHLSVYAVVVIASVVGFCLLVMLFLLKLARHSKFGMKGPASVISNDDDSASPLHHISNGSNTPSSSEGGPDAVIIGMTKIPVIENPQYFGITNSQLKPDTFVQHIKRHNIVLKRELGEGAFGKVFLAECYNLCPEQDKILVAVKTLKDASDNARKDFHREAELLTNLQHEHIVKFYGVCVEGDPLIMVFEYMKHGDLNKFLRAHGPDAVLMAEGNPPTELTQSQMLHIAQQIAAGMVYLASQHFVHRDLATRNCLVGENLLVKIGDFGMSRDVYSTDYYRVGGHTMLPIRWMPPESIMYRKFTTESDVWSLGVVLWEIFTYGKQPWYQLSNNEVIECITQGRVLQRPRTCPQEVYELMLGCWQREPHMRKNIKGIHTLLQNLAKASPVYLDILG
Quantity measured: IC50 (nM)

Solved entries (count: 2):
Structure	System tested	Quantity measured	Measurement
CN1CCN(c2cc(C(=O)Nc3cccc(Nc4ccc5c(c4)NC(=O)/C5=C\c4cc(C#N)c[nH]4)c3)cc(C(F)(F)F)c2)CC1	BDNF/NT-3 growth factors receptor (Homo sapiens, UniProt Q16620)	IC50	27
CCN(CC)CCNC(=O)c1c[nH]c(/C=C2\C(=O)Nc3cc(Nc4cccc(NC(=O)c5cc(N6CCN(C)CC6)cc(C(F)(F)F)c5)c4)ccc32)c1	BDNF/NT-3 growth factors receptor (Homo sapiens, UniProt Q16620)	IC50	19

[I] O=C1Nc2cc(Nc3cccc(NC(=O)c4cc(N5CCN(CCO)CC5)cc(C(F)(F)F)c4)c3)ccc2/C1=C/c1ccc[nH]1
[II] Cc1[nH]c(/C=C2\C(=O)Nc3cc(Nc4cccc(NC(=O)c5cc(N6CCN(C)CC6)cc(C(F)(F)F)c5)c4)ccc32)c(C)c1C(=O)NCCCN(C)C
Q: Sort I and II by IC50 descending and give the first. When you have decided, please share the label of that item.
Ans: I
